Source of measurements: patent US20250332173A1

system: Target C; experiment: HiBiT protein abundance assay, Target C (Promega Nano-Glo HiBiT Lytic Detection System, knock-in K562 cell line); assay type: cell-based, human; settings: Homo sapiens, K562, 24 h, HiBiT K562 cell line, 24 hours, top dose 10 μM; read-out: Effect on protein abundance, Target C (IC50 category)
IC50 values, listed per item

Previously resolved entries follow.
compound	IC50
CCN1CCC(N2CCc3cc(-c4cc(C)c5nc(C)cn5n4)ccc3C2=O)CC1 [Compound 270]	> 10 µM
Cc1cn2cc(-c3cc(O)c4c(=O)n(C5CCNCC5)cnc4c3)cc(F)c2n1 [Compound 587]	0.1 to 1 µM
Cc1cn2nc(-c3cc(F)c4c(=O)n(C5CCN(C)CC5)ccc4c3)cc(C)c2n1 [Compound 400]	< 0.1 µM
Cc1cn2nc(-c3ccc4c(=O)n(C5CCN(C)CC5)cnc4c3F)cc(C)c2n1 [Compound 290]	0.1 to 1 µM
Cc1c(O)c(-c2ccc3c(=O)n([C@@H]4C[C@@H](C)N[C@@H](C)C4)ccc3n2)cc2cn(C)nc12 [Compound 1463]	1 to 10 µM

Query: Can you look up the measured IC50 of Cc1cn2nc(-c3ccc4c(=O)n(C5CCN(C)CC5)cnc4c3)cc(C)c2n1 [Compound 176] for me?
Reply: 1 to 10 µM

Query: Continue with Cc1cn2cc(-c3ccc4c(=O)n(C5CCNCC5)cnc4c3)cc(C(F)(F)F)c2n1 [Compound 306]
Reply: 1 to 10 µM

Query: Cool, now Cn1cc2cc(-c3ccc4c(=O)n(C5CCNCC5)ccc4n3)cc(F)c2n1 [Compound 1231]
Reply: 0.1 to 1 µM
